test system: Candida albicans IAM 4888; experiment: MIC, two-fold agar dilution method; assay type: cell-based; settings: Sabouraud agar
Reported minimum inhibitory concentration (MIC) by item:
Metric name: minimum inhibitory concentration (MIC)

* Cc1c(N)nc(C(CC(N)=O)NCC(N)C(N)=O)nc1C(=O)NC(C(=O)NC(C)C(O)CC(=O)NC(C(=O)NC(OC1OC(C)C(N)C(O)C1O)C(O)c1nc(-c2nc(C(=O)NCCCC(N)CC(=O)NCCC[S+](C)C)cs2)cs1)C(C)O)C(OC1OC(CO)C(O)C(O)C1OC1OC(CO)C(O)C(OC(N)=O)C1O)c1c[nH]cn1 (stereo not drawn) | 6.3
* Cc1c(N)nc([C@H](CC(N)=O)NC[C@H](N)C(N)=O)nc1C(=O)N[C@H](C(=O)N[C@H](C)[C@@H](O)CC(=O)N[C@H](C(=O)NC(O[C@@H]1O[C@@H](C)[C@@H](N)[C@@H](O)[C@H]1O)C(O)c1nc(-c2nc(C(=O)NCCCC(N)CC(=O)NCCCNCCCCN)cs2)cs1)[C@@H](C)O)[C@H](O[C@@H]1O[C@@H](CO)[C@@H](O)[C@H](O)[C@@H]1O[C@H]1O[C@H](CO)[C@@H](O)[C@H](OC(N)=O)[C@@H]1O)c1c[nH]cn1 (stereo partly drawn) [Tallysomycin A, reference compound] | 12.5
